The reported measurements were obtained from the supplement of paper PMC12067926.

Tested on: Bacillus 1 (Bacillus foraminis)
Assay: relative growth (AUC of 72 h growth curve relative to DMSO control, dAUC) (ratio); higher = more growth (less inhibition), active = hit call of the paper
Details: 20 µM
observed_property: relative growth
Answers are plain numbers.

# compound, relative growth
data = [
    ("CC[C@H](C)C1O[C@]2(C=C[C@@H]1C)C[C@@H]1C[C@@H](C/C=C(\\C)[C@@H](O[C@H]3C[C@H](OC)[C@@H](O[C@H]4C[C@H](OC)[C@H](NC)[C@H](C)O4)[C@H](C)O3)[C@@H](C)/C=C/C=C3\\CO[C@@H]4[C@H](O)C(C)=C[C@@H](C(=O)O1)[C@]34O)O2 (some centres undefined)", 0.928),
    ("N#Cc1c(Cl)c(Cl)c(Cl)c(C#N)c1Cl", 0.955),
]

Batch of 2 compounds: report relative growth for each.
1. CNC(=O)CSP(=S)(OC)OC
2. CCOc1cc(Oc2ccc(C(F)(F)F)cc2Cl)ccc1[N+](=O)[O-]

Marked response:
0.911
0.956

* * *

Tested on: Aeromonas 2 (Aeromonas sobria)
Test: relative growth (AUC of 72 h growth curve relative to DMSO control, dAUC) (ratio); higher = more growth (less inhibition), active = hit call of the paper
Settings: 20 µM
Provide the recorded relative growth for the entries that follow.
One number for each entry.

Consider the following illustrative entries.
# compound_structure, observed_property, observed
data = [
    ("CC1(C(=O)Nc2ccc(O)c(Cl)c2Cl)CCCCC1", "relative growth", 0.983),
    ("CCC(=O)Nc1ccc(Cl)c(Cl)c1", "relative growth", 0.953),
    ("COc1cc(OC)nc(NC(=O)NS(=O)(=O)c2ncccc2C(=O)N(C)C)n1", "relative growth", 1.01),
    ("O=C(NCCc1ncc(C(F)(F)F)cc1Cl)c1ccccc1C(F)(F)F", "relative growth", 0.977),
    ("CC1(C)CON(Cc2ccccc2Cl)C1=O", "relative growth", 0.966),
]

Batch of 2 compounds: report relative growth for each.
1. COC(=O)Nc1nc2ccccc2[nH]1
2. C/C(=N\C#N)N(C)Cc1ccc(Cl)nc1

Marked response:
1: 0.956; 2: 1.01

* * *

Test system: Community 7
Experiment: relative growth (AUC of 72 h growth curve relative to DMSO control, dAUC) (ratio); higher = more growth (less inhibition), active = hit call of the paper
Conditions: 20 µM
observed_property: relative growth
Numbers only.

Consider the following illustrative entries.
# compound, observed
records = [
    ("CCOP(=S)(OCC)Oc1nc(Cl)c(Cl)cc1Cl", 0.998),
    ("CNC(=O)ON=C(C)SC", 0.999),
    ("CC1(C)C(C=C(Cl)Cl)C1C(=O)OCc1cccc(Oc2ccccc2)c1 (configuration not stated)", 1.08),
    ("O=C1C=C(N(Cc2ccc(Cl)nc2)CC(F)F)CO1", 0.945),
    ("CCc1nn(C)c(C(=O)NCc2ccc(Oc3ccc(C)cc3)cc2)c1Cl", 1.02),
]

Batch of 7 compounds: report relative growth for each.
1. CC(C)(C)[C@@H](O)[C@H](Oc1ccc(Cl)cc1)n1cncn1
2. N#Cc1sc2c(=O)c3ccccc3c(=O)c=2sc1C#N
3. COc1cc(OC)nc(NC(=O)NS(=O)(=O)c2ncccc2C(=O)N(C)C)n1
4. CCCCCCCCCCCCNC(=N)N
5. CCN(CC)c1nc(C)cc(OP(=S)(OC)OC)n1
6. CC1(C)[C@H](C(=O)O[C@H](C#N)c2cccc(Oc3ccccc3)c2)[C@@H]1C=C(Br)Br
7. O=C(NCCc1ncc(C(F)(F)F)cc1Cl)c1ccccc1C(F)(F)F

Marked response:
[0.988, 1.06, 1.02, 0.993, 0.988, 1.07, 0.935]

* * *

Tested on: Carnobacterium 1 (Carnobacterium gallinarum)
Assay: relative growth (AUC of 72 h growth curve relative to DMSO control, dAUC) (ratio); higher = more growth (less inhibition), active = hit call of the paper
Details: 20 µM
observed_property: relative growth
One number for each entry.

# molecule, relative growth
records = [
    ("C#CCN1C(=O)COc2cc(F)c(N3C(=O)C4=C(CCCC4)C3=O)cc21", 0.92),
    ("CC(C)N(C(=O)COc1nnc(C(F)(F)F)s1)c1ccc(F)cc1", 1.04),
    ("Cc1cc(C)c(C2=C(OC(=O)CC(C)(C)C)C3(CCCC3)OC2=O)c(C)c1", 1.01),
]

Batch of 8 molecules: report relative growth for each.
1. CCC(CC)Nc1c([N+](=O)[O-])cc(C)c(C)c1[N+](=O)[O-]
2. CC(C)NC(=O)N1CC(=O)N(c2cc(Cl)cc(Cl)c2)C1=O
3. CSc1nnc(C(C)(C)C)c(=O)n1N
4. Cc1cc(C2CC2)nc(Nc2ccccc2)n1
5. CCOc1ccc(C(C)(C)COCc2cccc(Oc3ccccc3)c2)cc1
6. CC(C)(C)[C@@H](O)[C@H](Oc1ccc(Cl)cc1)n1cncn1
7. CCOC(=O)CC(SP(=S)(OC)OC)C(=O)OCC (stereo not given)
8. O=C1C2(Cl)C3(Cl)C4(Cl)C(Cl)(Cl)C5(Cl)C3(Cl)C1(Cl)C5(Cl)C24Cl (stereo not given)

Marked response:
1. 0.819
2. 1.02
3. 1.38
4. 0.909
5. 0.99
6. 1.06
7. 1.09
8. 0.621

* * *

Tested on: Serratia 1 (Serratia sp. 2015-2462-01)
Experiment: relative growth (AUC of 72 h growth curve relative to DMSO control, dAUC) (ratio); higher = more growth (less inhibition), active = hit call of the paper;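 active = growth AUC significantly below the DMSO wells by Dunnett test; inactive = the rest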
Details: 20 µM
The reply should be one of these categories: T for active, F for inactive

# compound, label_class
data = [
    ("CNC(=O)Oc1cccc(/N=C/N(C)C)c1", "F"),
]

Exam item: Could you check what this test reported for CCCC1COC(Cn2cncn2)(c2ccc(Cl)cc2Cl)O1 (stereo not given) ?
Marked response: F

Exam item: Could you check what this test reported for "CC(C)(C)[C@@H](O)[C@H](Oc1ccc(Cl)cc1)n1cncn1" ?
Marked response: F

Exam item: Could you check what this test reported for "CCc1nn(C)c(C(=O)NCc2ccc(Oc3ccc(C)cc3)cc2)c1Cl" ?
Marked response: F

Exam item: Could you check what this test reported for CC1(C)C(C(=O)OC(C#N)c2cccc(Oc3ccccc3)c2)C1(C)C (stereo not given) ?
Marked response: F

Exam item: Could you check what this test reported for CN/C(=N/CC1CCOC1)N[N+](=O)[O-] (stereo not given) ?
Marked response: F

Exam item: Could you check what this test reported for CC1(C)C(C=C(Cl)Cl)C1C(=O)OC(C#N)c1cccc(Oc2ccccc2)c1 (stereo not given) ?
Marked response: F

Exam item: Could you check what this test reported for "CC(C)N1C(=O)c2ccccc2NS1(=O)=O" ?
Marked response: F

Exam item: Could you check what this test reported for "Cc1cc(C)c(C2=C(OC(=O)CC(C)(C)C)C3(CCCC3)OC2=O)c(C)c1" ?
Marked response: F

Exam item: Could you check what this test reported for "N#CCNC(=O)c1cnccc1C(F)(F)F" ?
Marked response: F

Exam item: Could you check what this test reported for "CO/C=C(/C(=O)OC)c1ccccc1Oc1cc(Oc2ccccc2C#N)ncn1" ?
Marked response: F

Exam item: Could you check what this test reported for "Cc1ccc(/N=C/N(C)/C=N/c2ccc(C)cc2C)c(C)c1" ?
Marked response: F

Exam item: Could you check what this test reported for ClC1C(Cl)C(Cl)C(Cl)C(Cl)C1Cl (stereo not given) ?
Marked response: F

Exam item: Could you check what this test reported for "O=C1c2ccccc2C(=O)N1SC(Cl)(Cl)Cl" ?
Marked response: F

Exam item: Could you check what this test reported for "C[N+](C)(C)CCCl" ?
Marked response: F

Exam item: Could you check what this test reported for "CS(=O)(=O)NC(=O)c1cc(Oc2ccc(C(F)(F)F)cc2Cl)ccc1[N+](=O)[O-]" ?
Marked response: F

Exam item: Could you check what this test reported for CC(C)CC(C)c1sccc1NC(=O)c1cn(C)nc1C(F)(F)F (stereo not given) ?
Marked response: F

Exam item: Could you check what this test reported for Fc1ccc([C@]2(Cn3cncn3)O[C@H]2c2ccccc2Cl)cc1 (racemic) ?
Marked response: F

* * *

System: Neobacillus 1 (Neobacillus soli)
Experiment: relative growth (AUC of 72 h growth curve relative to DMSO control, dAUC) (ratio); higher = more growth (less inhibition), active = hit call of the paper
Details: 20 µM
observed_property: relative growth

# compound, relative growth
measured = [
    ("Oc1ccccc1-c1ccccc1", "0.9 (inactive)"),
]

Batch of 6 compounds: report relative growth for each.
1. N#Cc1c(Cl)c(Cl)c(Cl)c(C#N)c1Cl
2. Oc1ccc(Cl)cc1Cc1cc(Cl)ccc1O
3. COP(=S)(OC)Oc1ccc(SC)c(C)c1
4. COc1cc(OC)nc(NC(=O)NS(=O)(=O)c2ncccc2C(=O)N(C)C)n1
5. CS(=O)(=O)c1cc(C(F)(F)F)ccc1C(=O)c1cnoc1C1CC1
6. N#Cc1cc(Br)c(O)c(Br)c1

Marked response:
["0.966 (inactive)", "0.731 (active)", "0.955 (inactive)", "1.1 (inactive)", "1.06 (inactive)", "0.842 (inactive)"]

Batch of 5 compounds: report relative growth for each.
1. CC(C)OC(=O)C(C(=O)OC(C)C)=C1SCCS1
2. COc1cc(C)c(C(=O)c2c(OC)ccc(Br)c2C)c(OC)c1OC
3. CN/C(=N\[N+](=O)[O-])NCc1cnc(Cl)s1
4. Cc1cc(C)c(C2=C(OC(=O)CC(C)(C)C)C3(CCCC3)OC2=O)c(C)c1
5. CCc1cnc(C2=NC(C)(C(C)C)C(=O)N2)c(C(=O)O)c1 (stereo not given)

Marked response:
1. 1.01 (inactive)
2. 1.06 (inactive)
3. 0.85 (inactive)
4. 1.01 (inactive)
5. 1.01 (inactive)

Batch of 3 compounds: report relative growth for each.
1. Cc1nc(N(C)C)nc(OC(=O)N(C)C)c1C
2. Cc1cc(C)nc(Nc2ccccc2)n1
3. CCc1cccc(C)c1N(C(=O)CCl)[C@@H](C)COC

Marked response:
0.928 (inactive)
0.999 (inactive)
0.981 (inactive)

Batch of 4 compounds: report relative growth for each.
1. CC1=NNC(=O)N(/N=C/c2cccnc2)C1
2. Cc1ccc(/N=C/N(C)/C=N/c2ccc(C)cc2C)c(C)c1
3. Cc1cc(C2CC2)nc(Nc2ccccc2)n1
4. CS(=O)(=O)c1ccc(C(=O)C2C(=O)CCCC2=O)c([N+](=O)[O-])c1

Marked response:
1. 1.16 (inactive)
2. 0.964 (inactive)
3. 0.946 (inactive)
4. 1.04 (inactive)
